# key: entry, value: TGI
System: HL-60(TB) leukemia
PROCEDURE_SUMMARY: NCI tumour cell line growth inhibition, 48 h
EXPERIMENTAL_READOUT: TGI

- O=C(Nc1ccc(Cl)cc1)/C(Cc1cccc[n+]1[O-])=N\Nc1ccc([N+](=O)[O-])cc1[N+](=O)[O-]: > 100 µM
- O=C(O)C#CCO: > 100 µM
- O=C(O)C1c2ccccc2C(C(=O)O)c2ccccc21 (stereo unspecified): > 100 µM
- CC(C)=CCc1c(C)cc2cc3c(c(O)c2c1O)C(O)=CC(=O)C3(CC=C(C)C)C/C=C(\C)CO (stereo unspecified): 51.3 µM
- CCOC(=O)C1=C(C)NC2SC(=O)/C(=C\c3ccccc3)N2C1c1ccccc1 (stereo unspecified): > 100 µM
- CCN(CC)Cc1nc(C2CCC([N+](=O)[O-])O2)no1 (stereo unspecified): 40.5 µM

====

Test system: SF-268 CNS
PROCEDURE_SUMMARY: NCI tumour cell line growth inhibition, 48 h
// TGI lookup, one value per entry
EXPERIMENTAL_READOUT: TGI

• Cc1nc2ccccc2c(=O)n1CC(=O)O = > 100 µM
• CO/N=C1/c2sccc2[C@H](NC(=O)C(F)(F)F)[C@@H]1O = > 100 µM
• O=c1c2ccccc2nc(-c2ccccc2)n1NC(=S)Nc1ccc(Cl)cc1[N+](=O)[O-] = > 100 µM
• CCN1CC2=C(NC(=S)NC2c2cc(OC)c(OC)c(OC)c2)/C(=C/c2cc(OC)c(OC)c(OC)c2)C1 (stereo not given) = 37.7 µM
• CCN(CC)CCCC(Nc1c2ccc(Cl)cc2nc2ccc(OC)cc12)c1ccc(F)cc1 (stereo not given) = 5.33 µM

====

Tested on: K-562 leukemia
PROCEDURE_SUMMARY: NCI tumour cell line growth inhibition, 48 h
EXPERIMENTAL_READOUT: TGI

* COc1cc2c3c(n(C)c(=O)c2cc1OC)-c1cc2c(cc1/C3=C\CCCBr)OCO2 | > 100 µM
* CC[C@@H](C(=O)[C@@H](C)[C@@H](O)[C@H](C)[C@@H]1O[C@@H]([C@@H](CC)C(=O)O)CC[C@@H]1C)[C@H]1OC2(C=C[C@@H](O)[C@]3(CC[C@@](C)([C@H]4CC[C@](O)(CC)[C@H](C)O4)O3)O2)[C@H](C)C[C@@H]1C (stereo not given in full) | 3.39 µM
* COc1cccc(C2C3=C(COC3=O)N(CCO)c3cc4c(cc32)OCCO4)c1 (stereo not given) | > 50 µM
* CCOC(=O)c1cccc([N+](=O)[O-])c1N | > 100 µM
* CCCN(CCCCN1C(=O)c2ccccc2C1=O)CC1COc2ccccc2O1 (stereo not given) | > 100 µM
* CN(C)CCCNc1nccc(-c2c(-c3ccc(F)cc3)nn3cc(C(F)(F)F)ccc23)n1 | 14.2 µM
* O=C(O)C1c2ccccc2C(C(=O)O)c2ccccc21 (stereo not given) | > 100 µM
* CC12CC[C@H](O)C(C)(C)[C@H]1CC[C@](C)(O)C2COc1ccc2ccc(=O)oc2c1 (stereo not given in full) | > 100 µM
* CN(C)CCNC(=O)c1cccc2nc3cccc(F)c3nc12 | 12.3 µM
* CC(=O)OCC12C(OC(C)=O)C[C@@H](C)C3(CC(c4ccoc4)OC3=O)C1CCC(O)C21CO1 (stereo not given in full) | > 100 µM
* Oc1cc(O)c2c(=S)cc(-c3ccc(Cl)cc3)oc2c1 | 22.3 µM
* Cc1cccc2c(N)c3cccc(C(=O)NCCN(C)C)c3nc12 | 0.543 µM
* NCC1OC(OC2C(CO)OC(OC3C(O)C(N)CC(N)C3OC3OC(CO)C(O)C(O)C3N)C2O)C(N)C(O)C1O (stereo not given) | > 50 µg/mL
* O=c1c2ccccc2c(=O)c2c1cc(Cl)c1[nH]c3c([nH]c12)c(Cl)cc1c(=O)c2ccccc2c(=O)c13 | > 100 µM
* O=C(CCCc1ccccn1)c1ccccc1 | > 100 µM
* Cn1cc(C[C@@H](N)C(=O)O)c2ccccc21 | > 100 µM
* CC(=O)OC1CCC2(C)C(=CCC3C2CCC2(C)C(C(C)C(=O)O)CCC32)C1 (stereo not given) | > 100 µM
* CC(C)CC(=O)NC(NC(C)C)(C(F)(F)F)C(F)(F)F | > 100 µM
* C[C@]12C=CC(=O)C=C1CC[C@@H]1[C@@H]2C(=O)C[C@@]2(C)[C@H]1CC[C@]2(O)C(=O)CO | > 100 µM
* CCOC(=O)c1cc2c([nH]1)C(=O)CC1=C2CCN1Cc1ccccc1 | 25.9 µM
* COC(=O)Nc1nc2cc3c(cc2s1)OCCO3 | > 50 µM
* O=C(O)c1cc(=O)[nH]c(=S)[nH]1 | > 100 µM
* N#CC1CCN2N=C(c3ccccc3)SC12c1ccccc1 (stereo not given) | > 100 µM
* CC1=C[C@]2(CC(C)C3C(CC4(C)C5CCC6C(C)(C)C(=O)CC[C@@]67C[C@@]57CC[C@]34C)O2)OC1=O (stereo not given in full) | > 100 µM
* C/C(=C\CCc1ccoc1)CC/C=C(\C)CCCN1CCC(CO)CC1 | 3.86 µM

====

Tested on: MCF7 breast
PROCEDURE_SUMMARY: NCI tumour cell line growth inhibition, 48 h
EXPERIMENTAL_READOUT: TGI

* COc1ccccc1S(=O)Nc1ccccc1 (stereo unspecified) | > 100 µM
* CN(C)C=Nc1cccc2cnccc12 | > 100 µM
* CCCCN(CCCC)CCCN=c1nc2c(c(N)n1-c1ccccc1)c(=S)n(-c1ccccc1)c(=S)n2-c1ccccc1 | 1.51 µM
* C/C(=C\CCc1ccoc1)CC/C=C(\C)CCCN1CCC(CO)CC1 | 11.6 µM
* CCOC(=O)C1=C(C)NC(=O)NC1c1coc2cc(C)cc(C)c2c1=O (stereo unspecified) | > 100 µM
* CN(C)CCCNc1nnc(NCCCN(C)C)c2c(=O)c3sccc3[nH]c12 | > 100 µM

====

System: SF-539 CNS
PROCEDURE_SUMMARY: NCI tumour cell line growth inhibition, 48 h; in the data active = GI50 below about 0.43 µM; inactive = the rest
Classes used: active, inactive

- N#Cc1c(NC(=O)CN2CCOCC2)sc2c1CCCC2: inactive
- CNC(C)C(=O)N[C@H](C(=O)N1CCC[C@@H]1CN(CCc1ccccc1)C(=O)C(F)(F)F)[C@H](C)OCC#CC#CCO[C@H](C)[C@H](NC(=O)[C@H](C)NC)C(=O)N1CCC[C@H]1CN(CCc1ccccc1)C(=O)C(F)(F)F (stereo partly drawn): active
- CCN(CC)CCCC(Nc1c2ccc(Cl)cc2nc2ccc(OC)cc12)c1ccc(F)cc1 (stereo not drawn): inactive
- CN(C)CCN=Cc1c2ccccc2c(=O)n2c1oc1ccccc12: inactive
- CC(=O)OCC1OC(OC2=C(CC=C(Cl)Cl)C(=O)c3ccccc3C2=O)C(OC(C)=O)C(OC(C)=O)C1OC(C)=O (stereo not drawn): inactive
- C=C(C)[C@@H]1CCC2=C[C@@H](OC2=O)[C@@H](C(=C)C)C(=O)/C=C(/C)C(=O)C1: inactive
- COC(=O)Nc1nc2cc3c(cc2s1)OCCO3: inactive
- CC1=C([Se]CC(OC(=O)[C@@H](CO)NC(=O)OC(C)(C)C)C(=O)NC(C)(C)C)C(=O)c2ccccc2C1=O (stereo partly drawn): inactive

====

Test system: IGROV1 ovarian
PROCEDURE_SUMMARY: NCI tumour cell line growth inhibition, 48 h; in the data active = GI50 below about 0.43 µM; inactive = the rest
Classes used: active, inactive

- Nc1ccccc1NC(=O)c1ccc(CN2CCC/C(=C\c3cccc(Cl)c3)C2=O)cc1: active
- CC[C@@H](C(=O)[C@@H](C)[C@@H](O)[C@H](C)[C@@H]1O[C@@H]([C@@H](CC)C(=O)O)CC[C@@H]1C)[C@H]1OC2(C=C[C@@H](O)[C@]3(CC[C@@](C)([C@H]4CC[C@](O)(CC)[C@H](C)O4)O3)O2)[C@H](C)C[C@@H]1C (stereo partly drawn): inactive
- N#CN1CCC[C@H]1C(=O)N1CCc2c(-c3[nH]nc4ncccc34)cccc21: active

====

System: LOX IMVI melanoma
PROCEDURE_SUMMARY: NCI tumour cell line growth inhibition, 48 h
TGI: recorded values
EXPERIMENTAL_READOUT: TGI

• CC(C)c1cccc(C(C)C)c1NC(=O)C(=O)C(C(=O)c1ccc2ccccc2c1)C1OC(=O)c2ccccc21 (centres undefined) = > 100 µM
• CCOC(=O)c1c(C)n2c(=O)cc(C)c3c(OC(C)=O)c(OC(C)=O)cc1c32 = 22.9 µM
• CN1CCN(C(=S)N(C(=O)c2ccco2)c2ccccc2)CC1 = > 100 µM
• N#CC1CCN2N=C(c3ccccc3)SC12c1ccccc1 (centres undefined) = > 100 µM
• CCOC(=O)C(=O)N=Nc1nc2c(O)c3ccccc3c(O)c2s1 = 3.88 µM
• O=c1[nH]c(SCc2c(Cl)c(Cl)c(Cl)c(Cl)c2Cl)nc(=S)[nH]1 = > 100 µM
• O=c1cc(-c2ccccc2)oc2ccc(Oc3nnnn3-c3ccccc3)cc12 = > 100 µM
• CC1OC(OC2C(O)COC(OC3C(C)OC(OC4C(OC(=O)[C@]56CCC(C)(C)C[C@@H]5C5=CCC7[C@@]8(C)C[C@H](O)[C@H](OC9OC(CO)C(O)C(OC%10OC(CO)C(O)C(O)C%10O)C9O)[C@@](C)(CO)[C@@H]8CC[C@@]7(C)[C@]5(C)CC6)OCC(O)C4O)C(O)C3OC3OCC(O)C(O)C3O)C2O)C(O)C(O)C1O (some centres undefined) = 29.6 µM
• CCN(CC)CCNC(=O)c1cccc2cc3ccccc3nc12 = 19.2 µM
• COC(=O)c1ccc([N+](=O)[O-])c(O)c1 = > 100 µM
• O=C1c2ccccc2-c2c1c1ccccc1c(=O)n2CCCN1CCN(CCCn2c3c(c4ccccc4c2=O)C(=O)c2ccccc2-3)CC1 = > 100 µM
• COc1ccc(N[C@H](CS(=O)c2ccc(C)cc2)C(F)(F)C(F)(F)F)cc1 (some centres undefined) = > 100 µM
• Cc1ccccc1N=Nc1c(O)[nH]c2ccccc12 = > 100 µM
• CN(C)CCN=Cc1c2ccccc2c(=O)n2c1oc1ccccc12 = 16.1 µM
• Cn1cc(C[C@@H](N)C(=O)O)c2ccccc21 = > 100 µM
• COc1cc(C2CC(c3cc(C)ccc3C)=NN2c2ccc(S(=O)(=O)NC(=O)NCc3ccccc3)cc2)cc(OC)c1OC (centres undefined) = > 100 µM
• O=C(N/N=C1/C(=O)c2c3ccccc3cc3cccc1c23)c1cccc(Cl)c1 = > 100 µM
• CC1(C)CCc2cc3c(-c4ccccc4)cc(=O)oc3cc2O1 = > 100 µM
• Cc1nc(/N=C(\N)NC(=O)Nc2ccccc2Cl)sc1C = > 100 µM
